Measured pEC50 by item
Molecular target: human TRPML1 (Homo sapiens)
Sequence (Q9GZU1 whole entry L15A/L16A/L577A/L578A, form open): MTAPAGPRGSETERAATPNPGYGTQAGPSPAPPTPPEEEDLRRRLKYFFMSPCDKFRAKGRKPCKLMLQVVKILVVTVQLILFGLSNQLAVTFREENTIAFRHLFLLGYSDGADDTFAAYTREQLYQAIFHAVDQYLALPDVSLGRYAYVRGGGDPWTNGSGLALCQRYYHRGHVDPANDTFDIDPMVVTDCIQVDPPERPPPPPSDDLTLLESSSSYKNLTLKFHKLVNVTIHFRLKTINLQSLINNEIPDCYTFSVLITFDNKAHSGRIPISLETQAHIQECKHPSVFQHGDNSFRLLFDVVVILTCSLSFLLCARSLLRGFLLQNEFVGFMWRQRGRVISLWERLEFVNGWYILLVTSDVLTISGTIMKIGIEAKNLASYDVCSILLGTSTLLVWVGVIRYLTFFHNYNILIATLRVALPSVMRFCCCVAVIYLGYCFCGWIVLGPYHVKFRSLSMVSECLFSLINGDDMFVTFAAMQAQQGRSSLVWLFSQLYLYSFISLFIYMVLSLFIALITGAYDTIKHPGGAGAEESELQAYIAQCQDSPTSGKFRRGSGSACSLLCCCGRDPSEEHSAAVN
Assay: Fluorescent TRPML1 assay (Fluo4-AM calcium fluorescence, HEK-293 Trex cells)
Type: cell-based
Details: Table 3, compounds 101-177
pEC50: −log10 of the molar value.

Before answering, review these 4 worked examples.
{"chemical.structure": "C[C@@H]1CN(c2ncnc3c2c(C2CC2)cn3-c2cc(C#N)ccn2)CCN1C(=O)C(C)(C)C", "pEC50": "> 7.00"}
{"chemical.structure": "C[C@H]1CN(C(=O)C(C)(C)C)CCN1c1ncnc2c1c(-c1ccccc1F)cn2-c1cc(C#N)ccn1", "pEC50": "> 7.00"}
{"chemical.structure": "Cc1nccnc1-c1cn(-c2cc(F)cc(F)c2)c2ncnc(N3C[C@@H](C)N(C(=O)CC(C)C)C[C@@H]3C)c12", "pEC50": "5.70 to 6.30"}
{"chemical.structure": "C[C@H]1CN(C(=O)CCC(F)(F)F)CCN1c1ncnc2c1c(-c1ccccc1F)cn2-c1cc(C#N)ccn1", "pEC50": "> 7.00"}

Here's the next entry for you.
Q: Give its pEC50 value. Item: "C[C@H]1CN(C(=O)C2(C)CC2)CCN1c1ncnc2c1c(-c1ccccc1)cn2-c1cc(C#N)ccn1"
Ans: > 7.00

====

Molecular target: TRPML3 (Homo sapiens)
Construct: expressed in transfected cells
Sequence (Q8TDD5 whole entry): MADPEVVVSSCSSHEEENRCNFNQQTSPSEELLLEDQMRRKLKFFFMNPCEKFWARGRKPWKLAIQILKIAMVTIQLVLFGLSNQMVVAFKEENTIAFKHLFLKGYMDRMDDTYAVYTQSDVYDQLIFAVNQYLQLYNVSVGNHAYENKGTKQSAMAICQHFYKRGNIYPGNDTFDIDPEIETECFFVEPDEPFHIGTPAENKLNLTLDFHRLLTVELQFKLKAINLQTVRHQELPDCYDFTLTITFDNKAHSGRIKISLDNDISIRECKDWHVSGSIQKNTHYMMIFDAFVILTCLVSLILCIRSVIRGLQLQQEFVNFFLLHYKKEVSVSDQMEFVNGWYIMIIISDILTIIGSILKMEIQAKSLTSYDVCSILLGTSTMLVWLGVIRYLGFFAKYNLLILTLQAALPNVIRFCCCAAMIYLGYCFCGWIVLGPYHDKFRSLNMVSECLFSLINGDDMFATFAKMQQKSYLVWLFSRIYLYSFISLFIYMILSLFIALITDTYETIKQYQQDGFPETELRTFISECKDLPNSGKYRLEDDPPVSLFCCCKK
Assay: Fluorescent TRPML3 assay (as for TRPML1)
Format: cell-based
Conditions: Table 3, compounds 201-283
Below is a list of entries, each paired with its recorded EC50 value.

Known results for compounds:
{"compound": "C[C@@H]1CN(c2ncnc3c2c(C(F)(F)F)cn3-c2cncc(C#N)c2)[C@@H](C)CN1C(=O)C(C)(C)C", "EC50": "500 to 2000 nM"}
{"compound": "C[C@@H]1CN(c2ncnc3c2c(C2CCC2)cn3-c2cc(C#N)ccn2)[C@@H](C)CN1C(=O)CC(C)(C)C(F)(F)F", "EC50": "< 100 nM"}
{"compound": "C[C@@H]1CN(c2ncnc3c2c(C2CCC2)cn3-c2cc(F)cc(F)c2)[C@@H](C)CN1C(=O)C(C)(C)C(F)(F)F", "EC50": "100 to 500 nM"}

Q: Query (compound): "C[C@@H]1CN(c2ncnc3c2c(C2CCC2)cn3-c2cccc(F)c2)[C@@H](C)CN1C(=O)C(C)(C)C" ; field requested: EC50
Ans: 500 to 2000 nM

Q: Entry under review: "COC(C)(C)C(=O)N1CCN(c2ncnc3c2c(C(F)(F)F)cn3-c2cc(C#N)ccn2)[C@@H](C)C1" . Reported EC50?
Ans: 500 to 2000 nM

Q: Which EC50 is listed for [2H]C([2H])([2H])C(C(=O)N1C[C@H](C)N(c2ncnc3c2c(-c2ccccc2F)cn3-c2cc(C#N)ccn2)C[C@H]1C)C([2H])([2H])[2H] (single isomer, unassigned) ?
Ans: < 100 nM

Q: Record request: EC50 value, item "C[C@@H]1CN(c2ncnc3c2c(C2CCC2)cn3-c2cccc(Cl)c2)[C@@H](C)CN1C(=O)C1(F)CC1"
Ans: 500 to 2000 nM

Q: Look at this compound and give its reported EC50. "Cc1cn(-c2cc(C(F)(F)F)ccn2)c2ncnc(N3C[C@@H](C)N(C(=O)C(C)(C)C)C[C@@H]3C)c12"
Ans: 100 to 500 nM

Q: Can you share its EC50? I mean this compound: "C[C@@H]1CN(c2nccc3c2c(C2CC2)cn3-c2cccc(F)c2)[C@@H](C)CN1C(=O)C(C)(C)C"
Ans: < 100 nM

Q: Need EC50, item "C[C@@H]1CN(c2ncnc3c2c(-c2ccccc2F)cn3-c2cc(C#N)ccn2)[C@@H](C)CN1C(=O)C1(F)CC1"
Ans: 500 to 2000 nM

Q: What value of measured EC50 is listed for "COC1(C(=O)N2CCN(c3ncnc4c3c(-c3ccccc3F)cn4-c3cc(C#N)ccn3)[C@@H](C)C2)CC1" ?
Ans: 100 to 500 nM

Q: What measured EC50 goes with "C[C@@H]1CN(c2ncnc3c2c(C2CCC2)cn3-c2cccc(Cl)c2)[C@@H](C)CN1C(=O)CC(C)(C)C(F)(F)F" ?
Ans: 100 to 500 nM

====

This listing pairs compounds with measured pEC50.
Molecular target: TRPML2 (Homo sapiens, UniProt Q8IZK6)
Construct: expressed in transfected cells
Sequence (Q8IZK6 whole entry): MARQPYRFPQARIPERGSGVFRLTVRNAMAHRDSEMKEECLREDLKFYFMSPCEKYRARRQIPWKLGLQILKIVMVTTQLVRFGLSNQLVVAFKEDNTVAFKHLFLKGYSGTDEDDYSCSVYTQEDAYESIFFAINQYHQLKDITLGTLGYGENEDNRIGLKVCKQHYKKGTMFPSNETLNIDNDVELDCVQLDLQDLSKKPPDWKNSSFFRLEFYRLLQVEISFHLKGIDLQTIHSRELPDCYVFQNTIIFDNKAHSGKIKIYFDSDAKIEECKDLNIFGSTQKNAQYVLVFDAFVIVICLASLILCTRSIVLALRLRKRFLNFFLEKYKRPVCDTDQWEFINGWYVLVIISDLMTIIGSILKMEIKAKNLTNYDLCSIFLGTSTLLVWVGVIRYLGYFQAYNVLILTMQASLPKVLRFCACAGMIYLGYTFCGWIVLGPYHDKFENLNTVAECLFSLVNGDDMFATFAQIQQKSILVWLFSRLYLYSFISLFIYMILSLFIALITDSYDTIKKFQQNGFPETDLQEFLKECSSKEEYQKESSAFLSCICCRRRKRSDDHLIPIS
Assay: Fluorescent TRPML2 assay (as for TRPML1)
Format: cell-based
Settings: Table 3, compounds 201-283
Description: HEK-293 Trex cells were stably transfected with a construct consisting of the human coding sequence for TRPML1 cloned into the tet-inducible plasmid pCDNA5 T/O. Mutations were introduced into the TRPML1 sequence to facilitate expression on the cell surface (Silvia Vergarajauregui, Rosa Puertollano Traffic. 2006 March; 7 (3): 337-353). […] The Trypsin-EDTA is diluted with growth media, and cells are counted. […] EC50 values were calculated using a non-linear regression of Prism. […]
pEC50: −log10 of the molar value.

The examples below pair each entry with its known result.
{"compound": "COC(C)(C)C(=O)N1CCN(c2ncnc3c2c(-c2ccccc2F)cn3-c2cc(C#N)ccn2)C[C@H]1C [Compound 266]", "reported.value": "6.30 to 7.00"}
{"compound": "C[C@@H]1CN(c2ncnc3c2c(C(F)(F)F)cn3-c2cc(C#N)ccn2)[C@@H](C)CN1C(=O)CC(C)(C)C [Compound 209]", "reported.value": "> 7.00"}

Pending compound:
Q: Test system TRPML2 (Homo sapiens, UniProt Q8IZK6); read-out pEC50; what value for C[C@@H]1CN(c2ncnc3c2c(C2CCC2)cn3-c2cccc(C(F)(F)F)c2)[C@@H](C)CN1C(=O)C1(F)CC1 [Compound 260] ?
Ans: < 5.70

====

Target: UniProtKB Q9GZU1
Test: Fluorescent TRPML1 assay (Fluo4-AM calcium fluorescence, HEK-293 Trex cells)
Format: cell-based
Conditions: Table 3, compounds 201-283
pEC50: −log10 of the molar value.
recorded.metric: pEC50

{"compound": "C[C@@H]1CN(c2ncnc3c2c(C(F)(F)F)cn3-c2cc(C#N)ccn2)[C@@H](C)CN1C(=O)C(C)(C)C", "pEC50": "> 7.00"}
{"compound": "COC(C)(C)C(=O)N1CCN(c2ncnc3c2c(-c2ccccc2F)cn3-c2cc(C#N)ccn2)C[C@H]1C", "pEC50": "> 7.00"}
{"compound": "CC(C)C(=O)N1C[C@H](C)N(c2ncnc3c2c(-c2ccccc2F)cn3-c2cc(C#N)ccn2)C[C@H]1C (single isomer, unassigned) [Compound 233]", "pEC50": "> 7.00"}
{"compound": "C[C@@H]1CN(c2ncnc3c2c(C2CCC2)cn3-c2cccc(F)c2)[C@@H](C)CN1C(=O)C(C)(C)C(F)(F)F", "pEC50": "6.30 to 7.00"}
{"compound": "C[C@@H]1CN(c2ncnc3c2c(C2CCC2)cn3-c2cccc(Cl)c2)[C@@H](C)CN1C(=O)CC(C)(C)C(F)(F)F", "pEC50": "6.30 to 7.00"}

Now for a further compound.
Q: Query (compound): "C[C@@H]1CN(c2ncnc3c2c(C2CCC2)cn3-c2cccc(C(F)(F)F)c2)[C@@H](C)CN1C(=O)CC(C)(C)C(F)(F)F" ; field requested: pEC50
Ans: 6.30 to 7.00

====

Below, each entry is listed alongside its reported EC50.
Biological target: TRPML2 (Homo sapiens, UniProt Q8IZK6)
Construct: expressed in transfected cells
Experiment: Fluorescent TRPML2 assay (as for TRPML1)
Type: cell-based
Settings: Table 3, compounds 201-283

{"molecule": "C[C@@H]1CN(c2ncnc3c2c(C2CC2)cn3-c2cccc(Cl)c2)[C@@H](C)CN1C(=O)C(C)(C)C [Compound 206]", "EC50": "0.1 to 0.5 µM"}
{"molecule": "COC(C)(C)C(=O)N1CCN(c2ncnc3c2c(C2CC2)cn3-c2cc(C#N)ccn2)C[C@H]1C [Compound 265]", "EC50": "0.1 to 0.5 µM"}
{"molecule": "C[C@@H]1CN(c2ncnc3c2c(C2CC2)cn3-c2cccc(F)c2)[C@@H](C)CN1C(=O)C(C)(C)C [Compound 214]", "EC50": "> 2 µM"}

Now turn to the next molecule.
Q: Return reported EC50; argument: C[C@@H]1CN(c2ncnc3c2c(-c2ccccc2F)cn3-c2cc(C#N)ccn2)[C@@H](C)CN1C(=O)C(C)(C)C [Compound 230]
Ans: < 0.1 µM

Where these numbers come from: patent US20240398812A1
